Target: Human TREM2 (Homo sapiens)
Construct: expressed in transfected cells
Experiment: Human TREM2 activity: cellular phosphorylation of Syk (AlphaLISA SureFire Ultra p-SYK) in HEK293/DAP12+TREM2 stable cell line
Type: cell-based
Conditions: phospho-Syk AlphaLISA signal, HEK293/DAP12+TREM2 cells; concentration giving 50% of maximal response; read-out: EC50
RESULT TYPE: EC50

Here are 2 molecules together with their reported answers.
| MOLECULE | RESULT |
| --- | --- |
| Cc1cc([C@@H]2CN(c3cc4c(=O)n(C)c(C(F)(F)F)nc4c(-c4ccc(F)cc4F)n3)C[C@H](C)O2)ccn1 (single isomer, unassigned) [Example 189A] | 0.01 to 0.1 µM |
| Cc1cc([C@@H]2CN(c3cc4c(=O)n(C)c(C)nc4c(-c4ccc(Cl)cc4F)n3)CC(C)(C)O2)ccn1 (single isomer, unassigned) [Example 172A] | 0.1 to 1 µM |

Provide EC50 for all items below, preserving their order.
1. Cc1nc2c(-c3ccc(Cl)cc3F)nc([C@H]3CCO[C@@H](c4cnn(C5CC5)c4)C3)nc2c(=O)n1C (single isomer, unassigned) [Example 24B]
2. Cc1nc2c(-c3ccc(C(F)(F)F)cc3F)nc(N3C[C@@H](c4cnn(C5CC5)c4)O[C@@H](C)C3)nc2c(=O)n1C (single isomer, unassigned) [Example 195A]
3. Cc1nc2c(-c3ccc(Cl)cc3F)nc(N3CCO[C@@H](c4cnn(C)c4)C3)nc2c(=O)[nH]1 (single isomer, unassigned) [Example 203B]

1. 0.1 to 1 µM
2. 0.001 to 0.01 µM
3. 0.1 to 1 µM

====

Biological target: Human TREM2 (Homo sapiens, UniProt Q9NZC2)
Construct: expressed in transfected cells
Sequence (Q9NZC2 19-230): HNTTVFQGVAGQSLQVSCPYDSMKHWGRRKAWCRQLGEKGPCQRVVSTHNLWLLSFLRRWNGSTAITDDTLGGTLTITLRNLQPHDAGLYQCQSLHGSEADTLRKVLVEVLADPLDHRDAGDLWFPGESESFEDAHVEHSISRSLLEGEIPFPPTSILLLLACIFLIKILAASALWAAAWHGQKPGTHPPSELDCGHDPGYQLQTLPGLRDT
Sequence (O43914 22-113 partner): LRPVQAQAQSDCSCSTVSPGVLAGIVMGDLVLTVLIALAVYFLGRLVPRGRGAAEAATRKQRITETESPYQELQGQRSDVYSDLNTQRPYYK
Experiment: Human TREM2 activity: cellular phosphorylation of Syk (AlphaLISA SureFire Ultra p-SYK) in HEK293/DAP12+TREM2 stable cell line
Assay type: cell-based
Conditions: phospho-Syk AlphaLISA signal, HEK293/DAP12+TREM2 cells; concentration giving 50% of maximal response; read-out: EC50
RESULT TYPE: EC50

Here are 8 molecules together with their reported answers.
| MOLECULE | EC50 |
| --- | --- |
| Cc1nc2c(-c3ccc(Cl)cc3F)nc(N3CCO[C@H](c4cnn(C)c4)C3)nc2c(=O)n1C (single isomer, unassigned) | 100 to 1000 nM |
| Cn1c(C(F)(F)F)nc2c(-c3ccc(F)cc3F)nc(C3CCOC(c4cnn(C5CC5)c4)C3)c(F)c2c1=O (stereo not drawn) | 100 to 1000 nM |
| Cc1cc([C@@H]2CN(c3cc4c(=O)n(C)c(C)nc4c(-c4ccc(C(F)(F)F)nc4)n3)CC(C)(C)O2)ccn1 (single isomer, unassigned) [Example 161A] | 100 to 1000 nM |
| Cc1cc2c(-c3ccc(Cl)cc3F)nc(N3CCOC(c4cnn(C)c4)C3)nc2c(=O)n1C (stereo not drawn) | 1 to 10 nM |
| Cc1nc2c(-c3ccc(F)cc3F)nc(N3C[C@H](c4cnn(C)c4)OC(C)(C)C3)nc2c(=O)n1C (single isomer, unassigned) [Example 121B] | > 1000 nM |
| Cc1nc2c(-c3ccc(F)cc3F)nc(N3C[C@@H](c4cnn(C5CC5)c4)O[C@@H](C)C3)cc2c(=O)n1C (single isomer, unassigned) [Example 190A] | 10 to 100 nM |
| Cn1cc([C@H]2CN(c3nc(-c4ccc(Cl)cc4F)c4nc(C(F)(F)F)n(C)c(=O)c4n3)CCO2)cn1 (single isomer, unassigned) | 1 to 10 nM |
| Cc1cc([C@H]2CN(c3cc4c(=O)n(C)c(C)nc4c(-c4ccc(C(F)(F)F)nc4)n3)CCO2)ccn1 (single isomer, unassigned) [Example 138B] | 100 to 1000 nM |

Provide EC50 for all items below, preserving their order.
1. Cc1nc2c(-c3ccc(Cl)cc3F)nc([C@H]3CCO[C@@H](c4cnn(C5CC5)c4)C3)nc2c(=O)n1C (racemic) [Example 14]
2. Cc1nc2c(-c3ccc(F)cc3F)nc(N3CCO[C@@H](c4cnn(C)c4)C3)cc2c(=O)n1C (single isomer, unassigned) [Example 129A]
3. Cc1cc([C@@H]2CN(c3nc(-c4ccc(C(F)(F)F)cc4F)c4nc(C)n(C)c(=O)c4n3)CC(C)(C)O2)ccn1 (single isomer, unassigned) [Example 124A]
4. Cc1nc2c(-c3ccc(Cl)cc3F)nc(N3CC[C@@H](Oc4cnn(C)c4)C3)nc2c(=O)n1C

["100 to 1000 nM", "10 to 100 nM", "10 to 100 nM", "10 to 100 nM"]

Provenance of the data: patent US20260200926A1
